FYI, the data here is from ChEMBL document CHEMBL1201862.

# System: OVCAR-8
# ASSAY TEXT: NCI tumour cell line growth inhibition, 48 h
Active and inactive are the calls of the source. No stated cut-off is given here; in the data, active = GI50 up to about 1.1 µM and inactive = higher.
Return exactly one item of class 1 (active), class 0 (inactive)

Worked examples, 2 molecules total:
• CCOC(=O)C(=O)/C(=C/NC(=S)c1ccncc1)C(=O)OCC = class 0
• COC(=O)C1=C(C(=O)OC)C23CC1C1C(C(=O)OC)=C(C(=O)OC)C12C1C=CC3C2C(=O)OC(=O)C21 (centres undefined) = class 0

Incoming: Give the logged outcome of this assay for the following molecule: `O=C1C=CC(=O)C(CNc2ccc(C(=O)OC34CC5CC(CC(C5)C3)C4)cc2)=C1Br`
Outgoing: class 0

Incoming: Give the logged outcome of this assay for the following molecule: `Cc1ccc2c(=O)c(-c3n[nH]c(=S)s3)c[nH]c2n1`
Outgoing: class 0

Incoming: Give the logged outcome of this assay for the following molecule: `COC(=O)c1c(O)ccc2c1c1c(n2Cc2ccc(OC)cc2)C(=O)c2ccccc2C1=O`
Outgoing: class 0

Incoming: Give the logged outcome of this assay for the following molecule: C/C=C(/C)C(=O)O[C@H]1[C@H](O)CC(c2ccc3c(c2O)C(=O)C2=C(O)C4(OC)C(=O)C(C(N)=O)=C(O)[C@H](CC(=O)c5ccccc5O)C4CC2[C@@]3(C)OC)O[C@@H]1C (some centres undefined)
Outgoing: class 1

Incoming: Give the logged outcome of this assay for the following molecule: `O=c1ssc(Cl)c1Nc1c(Cl)ssc1=O`
Outgoing: class 0

Incoming: Give the logged outcome of this assay for the following molecule: `c1c[nH]c(-c2cccc3nsnc23)c1`
Outgoing: class 0

Incoming: Give the logged outcome of this assay for the following molecule: CC(SC(=S)Nc1cccc(F)c1)C(=O)O (centres undefined)
Outgoing: class 0

Incoming: Give the logged outcome of this assay for the following molecule: `COc1cc2ccnc([C@@H](OC(=O)c3ccccc3)c3ccc(OC)c(OC)c3OC)c2cc1OC`
Outgoing: class 0

Incoming: Give the logged outcome of this assay for the following molecule: `C=C1C(=O)O[C@@H]2[C@H](O)[C@@H](C)[C@@H]3C=CC(=O)[C@@]3(C)[C@H](OC(=O)C=C(C)C)[C@H]12`
Outgoing: class 1

---

# System: NCI-H460
# ASSAY TEXT: NCI tumour cell line growth inhibition, 48 h
The source made the active and inactive calls. Cut-off read from the data, not from the text of the source: active = GI50 up to about 1.1 µM and inactive = higher.
Parameter GI50: see the listing below.

// GI50 value for CN1C(=O)N/C(=C\c2ccc(S(=O)(=O)N/N=C\C(O)C(O)C(O)CO)cc2)C1=O (centres undefined) : > 100 µM (inactive)

// GI50 value for `Cc1ccc(I)cc1N=C=S` : 23.5 µM (inactive)

// GI50 value for CC(O)CCCOC(c1ccccc1)(c1ccccc1)c1ccccc1 (centres undefined) : 16.1 µM (inactive)

// GI50 value for O=C(O)c1cc2c(cc1S(=O)(=O)O)C1C(C3C2C2(Cl)C(Cl)=C(Cl)C3(Cl)C2(Cl)Cl)C2(Cl)C(Cl)=C(Cl)C1(Cl)C2(Cl)Cl (centres undefined) : 34.6 µM (inactive)

// GI50 value for O=C1C=C2CCCC2C(C(=O)O)(C(=O)O)C1 (centres undefined) : > 100 µM (inactive)

// GI50 value for `Cc1cc(NCCCCCCNc2cc(C)nc3cc(N(C)C)ccc23)c2ccc(N(C)C)cc2n1` : 13.3 µM (inactive)

// GI50 value for `O=C1c2ccccc2C(=O)c2c(NC(=O)c3ccc4c5c(ncnc35)-c3ccccc3C4=O)cccc21` : > 100 µM (inactive)

// GI50 value for `CCCCCCCCCCCCCCCCCCOP(=O)([O-])OCC[N+](C)(C)C` : 0.41 µM (active)

// GI50 value for CC1=NN(c2cccc(Cl)c2)C2(C1=Cc1ccc(O)cc1)C(Cl)C(=O)N2c1nc2ccccc2s1 (centres undefined) : 24.9 µM (inactive)
